Biological target: T1, TNFR1 (Homo sapiens, UniProt P19438)
T1 chain: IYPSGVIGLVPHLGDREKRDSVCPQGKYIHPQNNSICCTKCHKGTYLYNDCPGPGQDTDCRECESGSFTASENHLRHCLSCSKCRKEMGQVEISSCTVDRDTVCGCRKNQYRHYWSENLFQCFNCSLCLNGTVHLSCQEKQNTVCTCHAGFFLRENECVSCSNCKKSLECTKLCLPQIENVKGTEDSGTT
Assay: yeast display SC50
OBSERVED_PROPERTY: apparent Kd (screen) (nM)
Give bare numbers, in nM.

BINDER: A30M (designed binder) SMEEEVEKAAKEYEKKKKEAIEKHLEKLKMKDKEAAERFLKELEEAAKEYAKDEAKTMSEEEAKRRAKKYKEKVLLSELSEEEQKEIKEAEEKLVRTILKYVEEAAK
apparent Kd (screen) [nM]: 0.593

Hi, could you look up apparent Kd (screen) for each item in my list?
1. S80H (designed binder) SMEEEVEKAAKEYEKKKKEAIEKHLEKLKAKDKEAAERFLKELEEAAKEYAKDEAKTMSEEEAKRRAKKYKEKVLLSELHEEEQKEIKEAEEKLVRTILKYVEEAAK
2. L43H (designed binder) SMEEEVEKAAKEYEKKKKEAIEKHLEKLKAKDKEAAERFLKEHEEAAKEYAKDEAKTMSEEEAKRRAKKYKEKVLLSELSEEEQKEIKEAEEKLVRTILKYVEEAAK
3. K11F (designed binder) SMEEEVEKAAFEYEKKKKEAIEKHLEKLKAKDKEAAERFLKELEEAAKEYAKDEAKTMSEEEAKRRAKKYKEKVLLSELSEEEQKEIKEAEEKLVRTILKYVEEAAK

1. 0.956
2. 3.63
3. 0.49

Origin of values: paper PMC12416549
